Provenance of the data: ChEMBL document CHEMBL4014306

# system.tested: Short transient receptor potential channel 3 (Homo sapiens)
# Sequence (Q13507 whole entry): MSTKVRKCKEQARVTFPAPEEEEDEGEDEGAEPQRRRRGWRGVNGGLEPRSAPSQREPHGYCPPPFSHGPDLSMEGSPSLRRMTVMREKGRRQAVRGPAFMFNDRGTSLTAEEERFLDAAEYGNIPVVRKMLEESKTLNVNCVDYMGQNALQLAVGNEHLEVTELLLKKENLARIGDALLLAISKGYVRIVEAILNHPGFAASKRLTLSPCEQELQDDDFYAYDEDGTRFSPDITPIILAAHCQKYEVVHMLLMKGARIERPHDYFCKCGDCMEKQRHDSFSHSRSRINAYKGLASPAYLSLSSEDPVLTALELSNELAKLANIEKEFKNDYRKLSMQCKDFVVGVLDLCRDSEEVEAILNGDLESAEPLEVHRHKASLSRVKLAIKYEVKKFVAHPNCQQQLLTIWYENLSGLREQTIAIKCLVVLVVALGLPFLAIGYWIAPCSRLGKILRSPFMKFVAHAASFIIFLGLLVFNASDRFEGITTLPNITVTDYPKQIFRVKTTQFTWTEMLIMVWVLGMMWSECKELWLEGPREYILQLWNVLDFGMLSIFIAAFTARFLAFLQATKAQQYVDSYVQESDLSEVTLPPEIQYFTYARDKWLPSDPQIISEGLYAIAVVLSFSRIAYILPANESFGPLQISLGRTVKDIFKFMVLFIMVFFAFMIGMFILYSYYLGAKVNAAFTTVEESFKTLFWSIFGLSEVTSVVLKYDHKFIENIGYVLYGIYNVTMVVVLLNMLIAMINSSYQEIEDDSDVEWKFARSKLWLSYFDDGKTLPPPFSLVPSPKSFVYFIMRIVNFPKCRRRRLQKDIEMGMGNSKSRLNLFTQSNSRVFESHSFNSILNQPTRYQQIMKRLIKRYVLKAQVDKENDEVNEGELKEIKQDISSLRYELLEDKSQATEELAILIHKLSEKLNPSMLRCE
# assay.overview: Agonist activity at human TRPC3 expressed in HEK293 cells assessed as induction of membrane depolarization measured for 2.5 mins in presence of 0.5 mM Ca2+ by FLIPR membrane potential dye-based fluorescence assay
value.kind: pEC50
# pEC50 = -log10(concentration in molar units)

GET /values?readout=pEC50&system=Short transient receptor potential channel 3 (Homo sapiens)&item= Cc1nn2c(O)cc(C3CCN(C(=O)OCc4ccccc4)CC3)nc2c1-c1ccc(F)cc1
6.63

Same again, this time with CCOC(=O)N1CCC(c2cc(O)n3nc(C)c(-c4ccc(F)cc4)c3n2)CC1
6.35

Then what about the compound Cc1nn2c(O)cc(C3CCN(C(=O)OCc4ccccc4)CC3)nc2c1-c1ccc(Cl)cc1 ?
6.86

###

# system.tested: Short transient receptor potential channel 7 (Homo sapiens)
# Sequence (Q9HCX4 whole entry): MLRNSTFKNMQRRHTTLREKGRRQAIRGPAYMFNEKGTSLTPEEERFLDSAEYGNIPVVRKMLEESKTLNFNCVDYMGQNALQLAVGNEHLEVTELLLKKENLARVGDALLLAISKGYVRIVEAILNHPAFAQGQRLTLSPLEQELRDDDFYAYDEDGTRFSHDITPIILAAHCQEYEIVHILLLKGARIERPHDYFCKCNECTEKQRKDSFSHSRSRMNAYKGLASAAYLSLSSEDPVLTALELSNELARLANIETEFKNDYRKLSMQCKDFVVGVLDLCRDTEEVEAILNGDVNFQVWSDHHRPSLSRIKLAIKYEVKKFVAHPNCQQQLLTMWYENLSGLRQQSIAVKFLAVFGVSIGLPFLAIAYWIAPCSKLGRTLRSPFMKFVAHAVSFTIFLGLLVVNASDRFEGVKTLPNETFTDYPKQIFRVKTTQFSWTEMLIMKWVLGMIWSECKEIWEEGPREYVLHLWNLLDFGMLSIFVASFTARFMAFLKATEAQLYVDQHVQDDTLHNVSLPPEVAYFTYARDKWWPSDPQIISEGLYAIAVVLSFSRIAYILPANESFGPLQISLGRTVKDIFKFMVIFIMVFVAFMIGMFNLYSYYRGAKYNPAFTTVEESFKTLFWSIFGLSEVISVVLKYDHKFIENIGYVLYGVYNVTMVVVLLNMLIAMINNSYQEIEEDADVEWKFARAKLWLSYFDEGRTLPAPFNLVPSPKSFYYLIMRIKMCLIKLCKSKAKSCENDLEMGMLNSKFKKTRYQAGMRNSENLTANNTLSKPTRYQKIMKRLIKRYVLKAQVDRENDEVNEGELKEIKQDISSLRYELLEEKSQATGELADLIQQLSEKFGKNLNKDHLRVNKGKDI
# assay.overview: Agonist activity at human TRPC7 expressed in HEK293 cells assessed as increase in intracellular calcium level measured for 2.5 mins in presence of 2 mM Ca2+ by Fluo8-AM dye-based fluorescence assay
# Assay type: cell-based
value.kind: EC50 (nM)
Give just the number in nM; leave the unit off.

If you can, please state the reported EC50 value of CCOC(=O)N1CCC(c2cc(O)n3nc(C)c(-c4ccc(C(F)(F)F)cc4)c3n2)CC1 .
90

Also need Cc1nn2c(O)cc(C3CCN(C(=O)OCc4ccccc4)CC3)nc2c1-c1ccc(Cl)cc1 , thanks.
213

Then this compound: CCOC(=O)N1CCC(c2cc(O)n3nc(C)c(-c4ccc(F)cc4)c3n2)CC1
497

Same lookup for Cc1nn2c(O)cc(C3CCN(C(=O)OCc4ccccc4)CC3)nc2c1-c1ccc(F)cc1 , please.
314
